- measured target: human mAChR M4 (Homo sapiens, UniProt P08173)
- Construct: expressed in transfected cells; host or cells: CHO-K1 (ATCC), stably co-expressing chimeric G protein Gqi5
- Sequence (P08173 whole entry): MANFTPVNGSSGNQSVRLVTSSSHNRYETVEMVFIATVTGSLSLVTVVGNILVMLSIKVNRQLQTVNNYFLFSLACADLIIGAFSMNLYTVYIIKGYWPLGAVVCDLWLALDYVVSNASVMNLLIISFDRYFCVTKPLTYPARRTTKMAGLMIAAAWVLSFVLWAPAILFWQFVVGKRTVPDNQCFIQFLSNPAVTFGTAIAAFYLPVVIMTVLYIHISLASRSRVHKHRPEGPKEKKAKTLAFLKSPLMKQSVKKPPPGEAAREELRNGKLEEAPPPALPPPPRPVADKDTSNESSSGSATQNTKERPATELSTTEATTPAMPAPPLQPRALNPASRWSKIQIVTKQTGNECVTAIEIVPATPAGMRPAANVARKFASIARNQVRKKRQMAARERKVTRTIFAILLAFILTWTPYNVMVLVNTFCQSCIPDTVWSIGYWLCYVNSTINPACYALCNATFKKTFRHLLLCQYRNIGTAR
- assay remarks: mAChR M4 cell-based functional assay (calcium mobilization, EC80 acetylcholine), human M4
- test settings: Table 9; human M4; % ACh maximum at 30 μM
reported endpoint: Emin (%)
// return numeric value only (unit: %, not printed)

Some solved entries appear below for comparison.
molecule	recorded number
Fc1ccc(Cl)c(-c2ccc(O[C@@H]3C[C@@H]4CN(CC5CCCOC5)C[C@@H]4C3)nn2)c1 (stereo partly shown) [Compound 57]	6.99
Cc1cnn(C)c1-c1ccc(N[C@H]2C[C@@H]3CN(Cc4ccccc4F)C[C@@H]3C2)nn1 [Compound 25]	4.92
Cc1cnn(C)c1-c1ccc(NC[C@H]2C[C@@H]3CN(CC4CCOCC4)C[C@@H]3C2)nn1 [Compound 66]	17.2
Fc1ccc(Cl)c(-c2ccc(OCC3C[C@@H]4CN(CC5CCCCC5)C[C@@H]4C3)nn2)c1 (stereo partly shown) [Compound 111]	3.62
Cc1nn(C)cc1-c1ccc(NC[C@H]2C[C@@H]3CN(CC4CCCCC4)C[C@@H]3C2)nn1 [Compound 72]	4.02

(Q) Look up Emin: Fc1ccc(Cl)c(-c2ccc(O[C@@H]3C[C@@H]4CN(CC5CC6C=CC5C6)C[C@@H]4C3)nn2)c1 (stereo partly shown) [Compound 53]
(A) 3.21

(Q) Thanks! And Fc1ccc(Cl)c(-c2ccc(OCC3C[C@@H]4CN(Cc5ccc6c(c5)OCO6)C[C@@H]4C3)nn2)c1 (stereo partly shown) [Compound 119] ?
(A) 4.24

Data provenance: patent US12577234B2
